Sourced from patent US6268381A

# ASSAY: Solubility test of water-soluble taxane derivatives (Test 1, HPLC)
# Type: physicochemical
# RUN_CONDITIONS: water + 0.1n hcl; purified water + 1.05 eq. 0.1N hydrochloric acid; shaken 2 hours at room temperature
ASSAY_ENDPOINT: solubility at 2 h (mg/mL)
API: value field is a number in mg/mL; no unit string.

Return reported solubility at 2 h. Input molecule: CCN1CCN(C(=O)O[C@H]2C(=O)[C@@]3(C)[C@H]([C@H](OC(=O)c4ccccc4)[C@]4(O)C[C@H](OC(=O)[C@H](O)[C@@H](NC(=O)OC(C)(C)C)c5ccco5)C(C)=C2C4(C)C)[C@]2(OC(C)=O)CO[C@@H]2C[C@@H]3O)CC1 1.57

----------
# Test system: KB cells
ASSAY_ENDPOINT: GI50 (ng/mL)
API: value field is a number in ng/mL; no unit string.

Return reported GI50. Input compound: CC(=O)O[C@H]1C(=O)[C@@]2(C)[C@H]([C@H](OC(=O)c3ccccc3)[C@]3(O)C[C@H](OC(=O)[C@H](O)[C@@H](NC(=O)c4ccccc4)c4ccccc4)C(C)=C1C3(C)C)[C@]1(OC(C)=O)CO[C@@H]1C[C@@H]2O 1.3

Return reported GI50. Input compound: CC(=O)O[C@@]12CO[C@@H]1C[C@H](O)[C@@]1(C)C(=O)[C@H](OC(=O)N3CCN(C)CC3)C3=C(C)[C@@H](OC(=O)[C@H](O)[C@@H](NC(=O)OC(C)(C)C)c4ccoc4)C[C@@](O)([C@@H](OC(=O)c4ccccc4)[C@H]21)C3(C)C 0.28

Return reported GI50. Input compound: CC(=O)O[C@@]12CO[C@@H]1C[C@H](O)[C@@]1(C)C(=O)[C@H](OC(=O)N3CCC(N4CCCCC4)CC3)C3=C(C)[C@@H](OC(=O)[C@H](O)[C@@H](NC(=O)OC(C)(C)C)c4ccoc4)C[C@@](O)([C@@H](OC(=O)c4ccccc4)[C@H]21)C3(C)C 0.48

----------
# System: KB cells
ASSAY_ENDPOINT: GI50 (ng/mL)
API: value field is a number in ng/mL; no unit string.

State the measured GI50 (KB cells) of CCCN(CCC)C1CCN(C(=O)O[C@H]2C(=O)[C@@]3(C)[C@H]([C@H](OC(=O)c4ccccc4)[C@]4(O)C[C@H](OC(=O)[C@H](O)[C@@H](NC(=O)OC(C)(C)C)c5ccco5)C(C)=C2C4(C)C)[C@]2(OC(C)=O)CO[C@@H]2C[C@@H]3O)CC1 [Compound 1-3] 0.43

State the measured GI50 (KB cells) of CCN1CCN(C(=O)O[C@H]2C(=O)[C@@]3(C)[C@H]([C@H](OC(=O)c4ccccc4)[C@]4(O)C[C@H](OC(=O)[C@H](O)[C@@H](NC(=O)OC(C)(C)C)c5ccco5)C(C)=C2C4(C)C)[C@]2(OC(C)=O)CO[C@@H]2C[C@@H]3O)CC1 [Compound 1-4] 0.23

----------
# Test system: KB cells
# ASSAY: Growth inhibitory activity against KB cells (Test 2, XTT assay)
# Format: cell-based, human
# RUN_CONDITIONS: relative to Taxol (1.00)
ASSAY_ENDPOINT: Activity ratio
Enter a number only.

Return reported Activity ratio. Input compound: CCN1CCN(C(=O)O[C@H]2C(=O)[C@@]3(C)[C@H]([C@H](OC(=O)c4ccccc4)[C@]4(O)C[C@H](OC(=O)[C@H](O)[C@@H](NC(=O)OC(C)(C)C)c5ccco5)C(C)=C2C4(C)C)[C@]2(OC(C)=O)CO[C@@H]2C[C@@H]3O)CC1 5.65

Return reported Activity ratio. Input compound: CCCN(CCC)C1CCN(C(=O)O[C@H]2C(=O)[C@@]3(C)[C@H]([C@H](OC(=O)c4ccccc4)[C@]4(O)C[C@H](OC(=O)[C@H](O)[C@@H](NC(=O)OC(C)(C)C)c5ccco5)C(C)=C2C4(C)C)[C@]2(OC(C)=O)CO[C@@H]2C[C@@H]3O)CC1 3.02

Return reported Activity ratio. Input compound: CC(=O)O[C@@]12CO[C@@H]1C[C@H](O)[C@@]1(C)C(=O)[C@H](OC(=O)N3CCC(N4CCCCC4)CC3)C3=C(C)[C@@H](OC(=O)[C@H](O)[C@@H](NC(=O)OC(C)(C)C)c4ccoc4)C[C@@](O)([C@@H](OC(=O)c4ccccc4)[C@H]21)C3(C)C 2.70

Return reported Activity ratio. Input compound: CC(=O)O[C@@]12CO[C@@H]1C[C@H](O)[C@@]1(C)C(=O)[C@H](OC(=O)N3CCN(C)CC3)C3=C(C)[C@@H](OC(=O)[C@H](O)[C@@H](NC(=O)OC(C)(C)C)c4ccoc4)C[C@@](O)([C@@H](OC(=O)c4ccccc4)[C@H]21)C3(C)C 4.64
